For each record, write down the corresponding Ratio IC50.
# assay_remarks: Selectivity index, ratio of IC50 for antiproliferative activity against human MCF7 cells assessed as inhibition of cell growth to IC50 for antiproliferative activity against human MCF7ADR cells assessed as inhibition of cell growth
# Format: functional
Numbers only.

# smiles_data, val
rows = [
    ("O=S(=O)(c1ccccc1)c1c(OCCOc2cccc3c2Oc2cccc(c2)CCc2ccc(O)c(c2)Oc2ccc(cc2)CC3)no[n+]1[O-]", 10),
]

stdin: Look up Ratio IC50 of `O=S(=O)(c1ccccc1)c1c(OCCOc2ccc3cc2Oc2ccc(cc2)CCc2cccc(OCCOc4no[n+]([O-])c4S(=O)(=O)c4ccccc4)c2Oc2cccc(c2)CC3)no[n+]1[O-]` and report it.
stdout: 8

* * *

# Tested on: NCI/ADR-RES
# assay_remarks: Antiproliferative activity against human MCF7ADR cells assessed as inhibition of cell growth incubated for 48 hrs by MTT assay
# Type: functional, cell-based
pIC50: −log10 of the molar value.
For each record, write down the corresponding pIC50.

Observe how each entry below is paired with its result.
# compound, pIC50
records = [
    ("O=S(=O)(c1ccccc1)c1c(Oc2ccc(COc3cccc4c3Oc3cccc(c3)CCc3ccc(O)c(c3)Oc3ccc(cc3)CC4)cc2)no[n+]1[O-]", "< 5.52"),
    ("O=S(=O)(c1ccccc1)c1c(OCCCCCCOc2ccc3cc2Oc2ccc(cc2)CCc2cccc(OCCCCCCOc4no[n+]([O-])c4S(=O)(=O)c4ccccc4)c2Oc2cccc(c2)CC3)no[n+]1[O-]", "< 5.52"),
    ("O=[N+]([O-])c1ccc(O/N=[N+](\\[O-])N2CCN(Cc3ccc4c(c3O)Oc3cccc(c3)CCc3ccc(O)c(c3)Oc3ccc(cc3)CC4)CC2)c([N+](=O)[O-])c1", "< 5.52"),
]

Batch: pIC50 for all items listed.
1. O=C(/C=C\COc1no[n+]([O-])c1S(=O)(=O)c1ccccc1)Oc1cccc2c1Oc1cccc(c1)CCc1ccc(O)c(c1)Oc1ccc(cc1)CC2
2. O=C(CCCCCOc1no[n+]([O-])c1S(=O)(=O)c1ccccc1)Oc1ccc2cc1Oc1ccc(cc1)CCc1cccc(OC(=O)CCCCCOc3no[n+]([O-])c3S(=O)(=O)c3ccccc3)c1Oc1cccc(c1)CC2
3. O=S(=O)(c1ccccc1)c1c(OCCOCCOc2cccc3c2Oc2cccc(c2)CCc2ccc(O)c(c2)Oc2ccc(cc2)CC3)no[n+]1[O-]
4. O=S(=O)(c1ccccc1)c1c(OCCCOc2ccc3cc2Oc2ccc(cc2)CCc2cccc(O)c2Oc2cccc(c2)CC3)no[n+]1[O-]

stdout:
1. < 5.52
2. < 5.52
3. 6.00
4. 6.62

Batch: pIC50 for all items listed.
1. O=S(=O)(c1ccccc1)c1c(OC/C=C\COc2ccc3cc2Oc2ccc(cc2)CCc2cccc(OC/C=C\COc4no[n+]([O-])c4S(=O)(=O)c4ccccc4)c2Oc2cccc(c2)CC3)no[n+]1[O-]
2. COc1cccc2c1C(=O)c1c(O)c3c(c(O)c1C2=O)C[C@@](O)(C(=O)CO)C[C@@H]3O[C@H]1C[C@H](N)[C@H](O)[C@H](C)O1
3. O=[N+]([O-])OCC(COc1ccc2cc1Oc1ccc(cc1)CCc1cccc(OCC(CO[N+](=O)[O-])O[N+](=O)[O-])c1Oc1cccc(c1)CC2)O[N+](=O)[O-] (configuration not stated)
4. O=S(=O)(c1ccccc1)c1c(OCCCCCCOc2cccc3c2Oc2cccc(c2)CCc2ccc(O)c(c2)Oc2ccc(cc2)CC3)no[n+]1[O-]
5. O=S(=O)(c1ccccc1)c1c(OC/C=C\COc2cccc3c2Oc2cccc(c2)CCc2ccc(O)c(c2)Oc2ccc(cc2)CC3)no[n+]1[O-]

stdout:
["< 5.52", 4.49, "< 4.70", 6.43, "< 5.52"]

* * *

# assay_remarks: Selectivity index, ratio of IC50 for antiproliferative activity against human A549 cells assessed as inhibition of cell growth to IC50 for antiproliferative activity against human A549/Taxol cells assessed as inhibition of cell growth
# Format: functional
observation_type: Ratio IC50
Answers are plain numbers.

Observe how each entry below is paired with its result.
# smiles_data, val
data = [
    ("O=S(=O)(c1ccccc1)c1c(OCCCOc2cccc3c2Oc2cccc(c2)CCc2ccc(O)c(c2)Oc2ccc(cc2)CC3)no[n+]1[O-]", 17),
    ("O=S(=O)(c1ccccc1)c1c(OCCCOc2ccc3cc2Oc2ccc(cc2)CCc2cccc(OCCCOc4no[n+]([O-])c4S(=O)(=O)c4ccccc4)c2Oc2cccc(c2)CC3)no[n+]1[O-]", 4),
    ("O=S(=O)(c1ccccc1)c1c(OCCOc2ccc3cc2Oc2ccc(cc2)CCc2cccc(O)c2Oc2cccc(c2)CC3)no[n+]1[O-]", 3),
    ("O=S(=O)(c1ccccc1)c1c(OCCOc2cccc3c2Oc2cccc(c2)CCc2ccc(O)c(c2)Oc2ccc(cc2)CC3)no[n+]1[O-]", 6),
]

Shift focus to the following entry.
stdin: Look up Ratio IC50 of `O=C(CCCOc1no[n+]([O-])c1S(=O)(=O)c1ccccc1)Oc1ccc2cc1Oc1ccc(cc1)CCc1cccc(OC(=O)CCCOc3no[n+]([O-])c3S(=O)(=O)c3ccccc3)c1Oc1cccc(c1)CC2` and report it.
stdout: 3

* * *

# Test system: A549/TR
# assay_remarks: Antiproliferative activity against human A549/Taxol cells assessed as inhibition of cell growth incubated for 48 hrs by MTT assay
# Type: functional, cell-based
For each record, write down the corresponding pIC50.
One number for each entry, as −log10 of the molar value.

Batch: pIC50 for all items listed.
1. O=S(=O)(c1ccccc1)c1c(OCCOc2cccc3c2Oc2cccc(c2)CCc2ccc(O)c(c2)Oc2ccc(cc2)CC3)no[n+]1[O-]
2. O=S(=O)(c1ccccc1)c1c(OCCOc2ccc3cc2Oc2ccc(cc2)CCc2cccc(OCCOc4no[n+]([O-])c4S(=O)(=O)c4ccccc4)c2Oc2cccc(c2)CC3)no[n+]1[O-]
3. O=C(CCCOc1no[n+]([O-])c1S(=O)(=O)c1ccccc1)Oc1ccc2cc1Oc1ccc(cc1)CCc1cccc(OC(=O)CCCOc3no[n+]([O-])c3S(=O)(=O)c3ccccc3)c1Oc1cccc(c1)CC2
4. O=S(=O)(c1ccccc1)c1c(OCCCOc2ccc3cc2Oc2ccc(cc2)CCc2cccc(OCCCOc4no[n+]([O-])c4S(=O)(=O)c4ccccc4)c2Oc2cccc(c2)CC3)no[n+]1[O-]

stdout:
1: 5.47; 2: 4.94; 3: 4.82; 4: 4.99

Batch: pIC50 for all items listed.
1. O=S(=O)(c1ccccc1)c1c(OCCOc2ccc3cc2Oc2ccc(cc2)CCc2cccc(O)c2Oc2cccc(c2)CC3)no[n+]1[O-]
2. O=S(=O)(c1ccccc1)c1c(OCCCCCCOc2cccc3c2Oc2cccc(c2)CCc2ccc(O)c(c2)Oc2ccc(cc2)CC3)no[n+]1[O-]
3. O=S(=O)(c1ccccc1)c1c(OCCCOc2ccc3cc2Oc2ccc(cc2)CCc2cccc(O)c2Oc2cccc(c2)CC3)no[n+]1[O-]
4. O=S(=O)(c1ccccc1)c1c(OCCOCCOc2cccc3c2Oc2cccc(c2)CCc2ccc(O)c(c2)Oc2ccc(cc2)CC3)no[n+]1[O-]
5. O=S(=O)(c1ccccc1)c1c(OCCCOc2cccc3c2Oc2cccc(c2)CCc2ccc(O)c(c2)Oc2ccc(cc2)CC3)no[n+]1[O-]

stdout:
[5.27, 5.18, 5.32, 4.92, 5.84]

* * *

# assay_remarks: Selectivity index, ratio of IC50 for antiproliferative activity against human A549 cells assessed as inhibition of cell growth to IC50 for antiproliferative activity against human A549/Taxol cells assessed as inhibition of cell growth
# Type: functional
For each record, write down the corresponding Ratio IC50.
Numbers only.

# smiles_data, Ratio IC50
data = [
    ("O=S(=O)(c1ccccc1)c1c(OCCOc2ccc3cc2Oc2ccc(cc2)CCc2cccc(OCCOc4no[n+]([O-])c4S(=O)(=O)c4ccccc4)c2Oc2cccc(c2)CC3)no[n+]1[O-]", 4),
]

Shift focus to the following entry.
stdin: Look up Ratio IC50 of `O=S(=O)(c1ccccc1)c1c(OCCCOc2ccc3cc2Oc2ccc(cc2)CCc2cccc(O)c2Oc2cccc(c2)CC3)no[n+]1[O-]` and report it.
stdout: 7

* * *

# Tested on: NCI/ADR-RES
# assay_remarks: Antiproliferative activity against human MCF7ADR cells assessed as inhibition of cell growth incubated for 48 hrs by MTT assay
# Format: functional, cell-based
observation_type: pIC50
One number for each entry, as −log10 of the molar value.

# smiles_data, pIC50
rows = [
    ("O=S(=O)(c1ccccc1)c1c(OCCOc2ccc3cc2Oc2ccc(cc2)CCc2cccc(O)c2Oc2cccc(c2)CC3)no[n+]1[O-]", 6.70),
    ("O=S(=O)(c1ccccc1)c1c(OCCCOc2cccc3c2Oc2cccc(c2)CCc2ccc(O)c(c2)Oc2ccc(cc2)CC3)no[n+]1[O-]", 7.62),
]

Shift focus to the following entry.
stdin: Look up pIC50 of `O=S(=O)(c1ccccc1)c1c(OCCOc2ccc3cc2Oc2ccc(cc2)CCc2cccc(OCCOc4no[n+]([O-])c4S(=O)(=O)c4ccccc4)c2Oc2cccc(c2)CC3)no[n+]1[O-]` and report it.
stdout: 5.49
